- Test system: SK-OV-3 ovarian
- protocolSummary: NCI tumour cell line growth inhibition, 48 h
assayMetric: TGI

molecule: COc1ccc(Cl)cc1Nc1nc(C(F)(F)F)ccc1C(=O)N/N=C/c1ccc(Cl)cc1
endpointValue: 22.9 µM
//
molecule: Nc1cc(O)c2cc(N=Nc3ccc(N=Nc4ccc(N=Nc5ccc6cc(S(=O)(=O)O)cc(S(=O)(=O)O)c6c5)c5ccccc45)c4cc(S(=O)(=O)O)ccc34)c(S(=O)(=O)O)cc2c1
endpointValue: > 100 µM
//
molecule: Cn1c(=O)c(-c2c(Cl)cccc2Cl)cc2cnc(Nc3ccc(N4CCOCC4)cc3)nc21
endpointValue: > 100 µM
//
molecule: O=C(Nc1ccccc1)Oc1ccccc1C1CCCCC1
endpointValue: > 100 µM
//
molecule: COc1ccc(-c2cc(=O)c3cc(OC)c(OC)cc3[nH]2)cc1OC
endpointValue: > 100 µM
//
molecule: O=C1C[C@@]23CCC4(CC2=CCC[C@H]3O1)OCCO4
endpointValue: > 100 µM
//
molecule: CC(=O)OC1C(C)OC(OC2C[C@](O)(C(C)=O)Cc3c(O)c4c(c(O)c32)C(=O)c2ccccc2C4=O)C(F)C1OC(C)=O (some centres undefined)
endpointValue: 22.1 µM
//
molecule: O=C(/C=C/c1ccc(OCC(=O)N2CCN(c3ccccc3)CC2)cc1)c1ccccc1
endpointValue: > 100 µM
//
molecule: Oc1[nH]c2ccccc2c1N=Nc1nc(-c2ccccc2)cs1
endpointValue: > 100 µM
